system: Alopecurus myosuroides (ALOMY); test: Example B post-emergence herbicidal greenhouse test; type: in vivo; conditions: 360 h, evaluated after 15 days, 100=total damage to plant, 0=no damage
Quantity Measured: pest or weed control at 125 g/ha (%)
Express the result in % but write the number alone.

Example results:
CCc1ccc(-c2ccc(Cl)cc2Cl)cc1C1=C(OC(=O)OC)[C@H]2CC[C@H](C2)C1=O (single isomer, unassigned): 100
CCc1ccc(-c2ccc(Cl)cc2Cl)cc1C1=C(OC(C)=O)[C@H]2CC[C@H](C2)C1=O (single isomer, unassigned): 60
Cc1ccc(-c2cccc(Cl)c2)cc1C1=C(O)[C@H]2CC[C@H](C2)C1=O (single isomer, unassigned): 0

QUERY: Recall the reported pest or weed control at 125 g/ha of "CCc1cc(-c2ccc(Cl)cc2)ccc1C1=C(O)[C@H]2CC[C@H](C2)C1=O" on Alopecurus myosuroides (ALOMY) and write it down.
RESULT: 90

QUERY: Report value only: pest or weed control at 125 g/ha, Alopecurus myosuroides (ALOMY), "CCc1cc(-c2ccc(Cl)cc2)cc(CC)c1C1=C(O)[C@H]2CC[C@H](C2)C1=O"
RESULT: 60

QUERY: Look up Alopecurus myosuroides (ALOMY) data: pest or weed control at 125 g/ha of CCc1ccc(-c2ccc(Cl)cc2C)cc1C1=C(O)[C@H]2CC[C@H](C2)C1=O (single isomer, unassigned) , then report it.
RESULT: 60

QUERY: // output pest or weed control at 125 g/ha; input Cc1cc(-c2ccccc2)cc(C)c1C1=C(OC(=O)C(C)(C)C)C2CCC(C2)C1=O (stereo not drawn) [Compound P2] ; system Alopecurus myosuroides (ALOMY)
RESULT: 30

QUERY: Specify pest or weed control at 125 g/ha for Cc1ccc(-c2ccc(Cl)c(C#N)c2)cc1C1=C(O)[C@H]2CC[C@H](C2)C1=O (single isomer, unassigned) , system Alopecurus myosuroides (ALOMY).
RESULT: 20

QUERY: Report its pest or weed control at 125 g/ha with Alopecurus myosuroides (ALOMY) as the test system: CCc1ccc(-c2ccc(Cl)cc2OC)cc1C1=C(O)[C@H]2CC[C@H](C2)C1=O (single isomer, unassigned)
RESULT: 0

---

tested on: Alopecurus myosuroides (ALOMY); assay: Example B pre-emergence herbicidal greenhouse test; format: in vivo; details: 480 h, evaluated after 20 days, 100=total damage to plant, 0=no damage
Quick list: pest or weed control at 250 g/ha per entry.
Give the number; % is assumed, so skip it.

The examples below pair each entry with its known result.
CCc1ccc(-c2ccc(Cl)cc2)cc1C1=C(O)[C@H]2CC[C@H](CC2)C1=O [Compound T54]: 70
CCc1ccc(-c2ccc(Cl)c(C#N)c2)cc1C1=C(O)[C@H]2CC[C@H](C2)C1=O (single isomer, unassigned) [Compound T34]: 40
Cc1cc(-c2ccc(C)c(C3=C(O)[C@H]4CC[C@H](C4)C3=O)c2)ccc1Cl (single isomer, unassigned) [Compound T24]: 40
CCc1ccc(-c2ccc(Cl)c(C(F)(F)F)c2)cc1C1=C(O)[C@H]2CC[C@H](C2)C1=O (single isomer, unassigned) [Compound T37]: 70
CCc1ccc(-c2ccc(F)c(Cl)c2)cc1C1=C(O)[C@H]2CC[C@H](C2)C1=O (single isomer, unassigned) [Compound T39]: 70

QUERY: Provide measured pest or weed control at 250 g/ha on Alopecurus myosuroides (ALOMY) for CCc1ccc(-c2ccc(Cl)c(F)c2)cc1C1=C(O)[C@H]2CC[C@H](C2)C1=O (single isomer, unassigned) [Compound T36] please.
RESULT: 70
